Entries and their protein stability index values follow.
B1: IQUB (parent)
chain: EADYEDDSKIAFLMQLQDIQYLTE

Variants of: B1
TEST: protein stability index of a GFP-peptide fusion (GPS, HEK-293T) (PSI 1-6); higher = more stable;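 also: lentivirally expressed fusions sorted by FACS into six bins by GFP to DsRed ratio, PSI derived from sequencing read proportions per bin multiplied by bin number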
MEASUREMENT SETUP: c terminus: a fixed tail appended
Number only, please.

VARIANT IDENTIFIER | protein stability index
T23Q | 3.89
A11H | 2.97
L13A | 4.02
I19Q | 4.11
A2T | 2.93

For this variant ( Q17A ), measured protein stability index is 2.5

// field: protein stability index; key: F12N ; value = 4.33

protein stability index for M14A is 3.4

Summary for this variant, Q15Y : protein stability index is 2.09

Quick note, protein stability index for A2K landed at 2.89

Looking up Q20M , I see its protein stability index listed as 2.48

protein stability index measured on L22T = 3.96

Reported protein stability index of L13N : 4.55

# protein stability index (variant: L22D ) is 4.97

Measured protein stability index of D18A : 1.74

# protein stability index of E1K = 2.27

Looking up L13G , I see its protein stability index listed as 4.29

Noted for Q17T : its protein stability index reads 2.96

The recorded protein stability index for I19S is 4.35

Per the records, this variant ( A2H ) has protein stability index equal to 2.51
